- System: primary cultures of neonatal cortical neurons exposed to 5 μM Aβ25-35
- Protocol Details: Protection of cortical neurons against Aβ25-35-induced cell death (MTT reduction analysis)
- Type: cell-based, rat
- Condition Details: compound 20 μM for 2 h, then 5 μM Aβ25-35 for 40 h; MTT; mean ± S.D., three experiments
// values below are reported cell death (%)

Compound: C=C1CCC2C(C)(CO)C(O)CCC2(C)C1C=CC1=CCOC1=O (centres unmarked) [Compound 5, 14-deoxy-11,12-didehydroandrographolide]
cell death (%): 29.5 ± 5.0 %

Compound: C=C1CCC2[C@@](C)(CO)CCC[C@]2(C)[C@H]1CCC1CCOC1=O (some centres unmarked) [Compound 1, 19-hydroxylabda-8(17)-en-16,15-olide]
cell death (%): 30.8 ± 5.0 %

Compound: C=C1CC[C@H]2[C@@](C)(CO)CCC[C@]2(C)[C@H]1CCC1=CCOC1=O [Compound 4]
cell death (%): 32.6 ± 7.2 %

Compound: C=C1CC[C@@H]2[C@](C)(CC[C@H](O)[C@]2(C)CO)[C@H]1/C=C/C1CCOC1=O (some centres unmarked) [Compound 3]
cell death (%): 29.3 ± 10.6 %

Compound: C=C1CC[C@@H]2[C@](C)(CC[C@H](O)[C@]2(C)CO)[C@H]1/C=C/[C@@H]1CCOC1=O [Compound 2]
cell death (%): 26.3 ± 9.4 %

----------
- Test system: primary cultures of neonatal cortical neurons exposed to 5 μM Aβ25-35
- Protocol Details: Protection of cortical neurons against Aβ25-35-induced cell death (MTT reduction analysis)
- Type: cell-based, rat
- Condition Details: compound 5 μM for 2 h, then 5 μM Aβ25-35 for 40 h; MTT; mean ± S.D., three experiments

Molecule: C=C1CC[C@H]2[C@@](C)(CO)CCC[C@]2(C)[C@H]1CCC1=CCOC1=O [Compound 4]
cell death (%): 34.8

Molecule: C=C1CC[C@@H]2[C@](C)(CC[C@H](O)[C@]2(C)CO)[C@H]1/C=C/[C@@H]1CCOC1=O [Compound 2]
cell death (%): 34.9

Molecule: C=C1CCC2C(C)(CO)C(O)CCC2(C)C1C=CC1=CCOC1=O (centres unmarked) [Compound 5, 14-deoxy-11,12-didehydroandrographolide]
cell death (%): 35.7

Molecule: C=C1CCC2[C@@](C)(CO)CCC[C@]2(C)[C@H]1CCC1CCOC1=O (some centres unmarked) [Compound 1, 19-hydroxylabda-8(17)-en-16,15-olide]
cell death (%): 25.3

Molecule: C=C1CC[C@@H]2[C@](C)(CC[C@H](O)[C@]2(C)CO)[C@H]1/C=C/C1CCOC1=O (some centres unmarked) [Compound 3]
cell death (%): 39.6
